Reported values of GI50 for individual entries
Target: BaF3 cell lines stably transfected with kinase EGFR L858R (Homo sapiens, UniProt P00533, L858R, cells depend on it)
Sequence (P00533 whole entry L858R): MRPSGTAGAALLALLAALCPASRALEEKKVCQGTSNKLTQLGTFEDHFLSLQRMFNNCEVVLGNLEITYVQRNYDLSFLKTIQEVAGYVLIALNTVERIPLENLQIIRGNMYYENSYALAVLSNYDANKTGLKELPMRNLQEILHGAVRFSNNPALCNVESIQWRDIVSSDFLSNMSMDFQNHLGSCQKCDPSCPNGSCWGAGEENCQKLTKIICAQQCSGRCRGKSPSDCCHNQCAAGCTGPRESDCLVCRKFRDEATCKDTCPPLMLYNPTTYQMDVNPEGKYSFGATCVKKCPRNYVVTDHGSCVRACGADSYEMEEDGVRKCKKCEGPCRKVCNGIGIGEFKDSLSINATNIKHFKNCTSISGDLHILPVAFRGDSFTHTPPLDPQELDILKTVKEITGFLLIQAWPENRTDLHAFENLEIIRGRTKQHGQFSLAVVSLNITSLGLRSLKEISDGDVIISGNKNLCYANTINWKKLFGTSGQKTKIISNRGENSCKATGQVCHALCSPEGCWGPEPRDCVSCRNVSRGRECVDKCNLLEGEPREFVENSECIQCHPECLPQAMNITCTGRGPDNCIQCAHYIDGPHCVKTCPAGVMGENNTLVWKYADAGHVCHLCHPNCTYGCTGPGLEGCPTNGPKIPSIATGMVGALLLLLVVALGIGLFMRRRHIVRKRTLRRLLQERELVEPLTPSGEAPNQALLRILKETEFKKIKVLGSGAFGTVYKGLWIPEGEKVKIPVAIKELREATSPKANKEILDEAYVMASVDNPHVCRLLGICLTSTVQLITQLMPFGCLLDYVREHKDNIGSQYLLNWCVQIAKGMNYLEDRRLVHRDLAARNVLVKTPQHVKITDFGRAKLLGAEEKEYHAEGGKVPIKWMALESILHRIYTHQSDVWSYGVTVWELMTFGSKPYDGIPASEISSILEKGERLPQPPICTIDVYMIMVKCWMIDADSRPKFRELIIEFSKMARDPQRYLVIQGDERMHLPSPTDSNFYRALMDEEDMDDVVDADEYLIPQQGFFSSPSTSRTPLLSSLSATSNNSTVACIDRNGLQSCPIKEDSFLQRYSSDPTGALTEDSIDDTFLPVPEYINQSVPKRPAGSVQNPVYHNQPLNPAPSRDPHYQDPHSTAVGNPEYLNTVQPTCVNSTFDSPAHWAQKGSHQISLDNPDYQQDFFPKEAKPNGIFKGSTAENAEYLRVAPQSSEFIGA
Test: Growth inhibition of BaF3 cell line stably transfected with kinase EGFR L858R (MTS)
Format: cell-based
Conditions: 48 h, read-out: growth inhibitory activity IC50, L858R
Readout Kind: GI50

>>> assay_result("C=Cc1cnc(Nc2cc(C)c(N3CCC(N4CCN(C)CC4)CC3)cc2OC)nc1Nc1ccc2nccnc2c1S(=O)(=O)C(C)C")
"50 to 500 nM"
>>> assay_result("CCc1cc(Nc2ncc(C=C(C)C)c(Nc3ccc4nccnc4c3N(C)S(C)(=O)=O)n2)c(OC)cc1N1CCC(N2CCN(C)CC2)CC1")
"50 to 500 nM"
>>> assay_result("C=Cc1cnc(Nc2cc[nH]n2)nc1Nc1ccc2nccnc2c1N(C)S(C)(=O)=O")
"500 to 2500 nM"
>>> assay_result("C=Cc1cnc(Nc2cc(CC)c(N3CCC(C4CN(C)C4)CC3)cc2OC)nc1Nc1ccc2nccnc2c1N(C)S(C)(=O)=O")
"≤ 50 nM"
>>> assay_result("C=Cc1cnc(Nc2cc(CC)c(N3CCC(N4CCN(C)CC4)CC3)cc2OC)nc1Nc1ccc2nccnc2c1S(=O)(=O)NC")
"50 to 500 nM"
>>> assay_result("C=Cc1cnc(Nc2ccn(C(C)C)n2)nc1Nc1ccc2nccnc2c1N(C)S(C)(=O)=O")
"≤ 50 nM"
>>> assay_result("C=Cc1cnc(Nc2cc(CC)c(N3CCC(N4CCN(C)CC4)CC3)cc2OC)nc1Nc1ccc2nccnc2c1S(=O)(=O)C(C)C")
"50 to 500 nM"
>>> assay_result("C=Cc1cnc(Nc2cc(CC)c(N(C)CCN(C)C)cc2OC)nc1Nc1ccc2nccnc2c1N(C)S(C)(=O)=O")
"500 to 2500 nM"
>>> assay_result("C=Cc1cnc(Nc2ccc(N3CCC(N4CCN(C)CC4)CC3)c(CC)c2)nc1Nc1ccc2nccnc2c1P(C)(C)=O")
"≤ 50 nM"
>>> assay_result("C=Cc1cnc(Nc2cc(F)c(N3CCC(N4CCN(C)CC4)CC3)c(F)c2)nc1Nc1ccc2nccnc2c1S(C)(=O)=O")
"500 to 2500 nM"
>>> assay_result("C=Cc1cnc(Nc2ccc(N3CCC(N4CCN(C)CC4)CC3)cc2OC)nc1Nc1ccc2nccnc2c1NS(=O)(=O)C(C)C")
"500 to 2500 nM"
>>> assay_result("C=C(C)c1cnc(Nc2cnn(C)c2)nc1Nc1ccc2nccnc2c1N(C)S(C)(=O)=O")
"50 to 500 nM"
>>> assay_result("CCc1cc(Nc2ncc(/C=C/C3CC3)c(Nc3ccc4nccnc4c3N(C)S(C)(=O)=O)n2)c(OC)cc1N1CCC(N2CCN(C)CC2)CC1")
"50 to 500 nM"
>>> assay_result("C=Cc1cnc(Nc2cc(CC)n(C)n2)nc1Nc1ccc2nccnc2c1N(C)S(C)(=O)=O")
"500 to 2500 nM"
>>> assay_result("C=Cc1cnc(Nc2cc(C(C)C)c(N3CCC(N4CCN(C)CC4)CC3)cc2OC)nc1Nc1ccc2nccnc2c1P(C)(C)=O")
"50 to 500 nM"

###

Target: BaF3 cell lines stably transfected with kinase EGFR Del/T790M/C797S (Homo sapiens, UniProt P00533, T790M/C797S, cells depend on it, form not given)
Sequence (P00533 with tags, fused parts or gaps DEL746-750/T790M/C797S, form open): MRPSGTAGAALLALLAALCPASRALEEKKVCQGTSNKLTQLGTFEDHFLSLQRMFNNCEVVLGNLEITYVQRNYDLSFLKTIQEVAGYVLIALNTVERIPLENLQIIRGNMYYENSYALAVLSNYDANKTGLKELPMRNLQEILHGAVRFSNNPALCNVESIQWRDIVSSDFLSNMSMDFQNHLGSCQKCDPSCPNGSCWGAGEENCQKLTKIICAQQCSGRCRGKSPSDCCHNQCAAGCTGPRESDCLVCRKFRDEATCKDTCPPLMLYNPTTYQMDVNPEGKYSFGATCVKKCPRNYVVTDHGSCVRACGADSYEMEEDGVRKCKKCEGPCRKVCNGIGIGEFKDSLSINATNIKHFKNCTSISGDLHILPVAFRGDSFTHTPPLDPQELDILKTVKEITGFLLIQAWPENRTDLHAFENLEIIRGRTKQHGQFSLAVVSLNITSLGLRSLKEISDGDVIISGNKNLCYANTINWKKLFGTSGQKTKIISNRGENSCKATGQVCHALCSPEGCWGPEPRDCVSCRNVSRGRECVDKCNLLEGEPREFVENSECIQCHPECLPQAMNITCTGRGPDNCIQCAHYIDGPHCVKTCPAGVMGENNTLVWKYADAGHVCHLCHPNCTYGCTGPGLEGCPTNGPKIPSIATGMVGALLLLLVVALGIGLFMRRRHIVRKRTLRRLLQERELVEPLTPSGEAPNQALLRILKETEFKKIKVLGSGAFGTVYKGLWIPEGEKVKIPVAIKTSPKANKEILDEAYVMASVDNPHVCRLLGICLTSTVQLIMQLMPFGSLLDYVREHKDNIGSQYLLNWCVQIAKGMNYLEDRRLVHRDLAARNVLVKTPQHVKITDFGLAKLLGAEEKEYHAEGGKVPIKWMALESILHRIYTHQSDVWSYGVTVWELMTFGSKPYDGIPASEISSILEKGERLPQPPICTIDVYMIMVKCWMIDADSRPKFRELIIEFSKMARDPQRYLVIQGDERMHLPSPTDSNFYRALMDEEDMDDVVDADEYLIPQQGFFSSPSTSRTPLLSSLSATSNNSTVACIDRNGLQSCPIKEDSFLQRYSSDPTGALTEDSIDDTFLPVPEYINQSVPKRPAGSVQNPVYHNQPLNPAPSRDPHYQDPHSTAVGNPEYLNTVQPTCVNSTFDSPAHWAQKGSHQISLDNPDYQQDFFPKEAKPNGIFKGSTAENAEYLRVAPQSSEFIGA
Experiment: Growth inhibition of BaF3 cell line stably transfected with kinase EGFR Del/T790M/C797S (MTS)
Format: cell-based
Details: 48 h, read-out: growth inhibitory activity IC50, Del/T790M/C797S
Catalogue of GI50 readings, one per entry.
Readout Kind: GI50

>>> assay_result("C=Cc1cnc(Nc2ccc(N3CCC(N4CCN(C)CC4)CC3)c(CC)c2)nc1Nc1ccc2nccnc2c1NS(C)(=O)=O")
"50 to 500 nM"
>>> assay_result("C=Cc1cnc(Nc2cc(CC)c(N3CCC(N4CCN(C)CC4)CC3)cc2OC)nc1Nc1ccc2nccnc2c1S(C)(=O)=O")
"500 to 2500 nM"
>>> assay_result("C=C(C)c1cnc(Nc2ccc(N3CCC(N4CCN(C)CC4)CC3)c(CC)c2)nc1Nc1ccc2nccnc2c1N(C)S(C)(=O)=O")
"50 to 500 nM"
>>> assay_result("C=Cc1cnc(Nc2cc(CC3CC3)c(N3CCC(N4CCN(C)CC4)CC3)cc2OC)nc1Nc1ccc2nccnc2c1S(C)(=O)=O")
"500 to 2500 nM"
>>> assay_result("C=Cc1cnc(Nc2cc(CC)c(N3CCC(N4CCN(C)CC4)CC3)nc2OC)nc1Nc1ccc2nccnc2c1S(=O)(=O)NC")
"500 to 2500 nM"
>>> assay_result("C=Cc1cnc(Nc2cc(CC3CC3)c(N3CCC(N4CCN(C)CC4)CC3)cc2OC)nc1Nc1ccc2nccnc2c1N(C)S(C)(=O)=O")
"≤ 50 nM"
>>> assay_result("C=Cc1cnc(Nc2cc(CC)c(N3CCC(N(C)C)CC3)cc2OC)nc1Nc1ccc2nccnc2c1NS(C)(=O)=O")
"≤ 50 nM"
